Test system: Platelet-derived growth factor receptor alpha (Homo sapiens), P16234 [V561D]
Sequence (P16234 whole entry V561D): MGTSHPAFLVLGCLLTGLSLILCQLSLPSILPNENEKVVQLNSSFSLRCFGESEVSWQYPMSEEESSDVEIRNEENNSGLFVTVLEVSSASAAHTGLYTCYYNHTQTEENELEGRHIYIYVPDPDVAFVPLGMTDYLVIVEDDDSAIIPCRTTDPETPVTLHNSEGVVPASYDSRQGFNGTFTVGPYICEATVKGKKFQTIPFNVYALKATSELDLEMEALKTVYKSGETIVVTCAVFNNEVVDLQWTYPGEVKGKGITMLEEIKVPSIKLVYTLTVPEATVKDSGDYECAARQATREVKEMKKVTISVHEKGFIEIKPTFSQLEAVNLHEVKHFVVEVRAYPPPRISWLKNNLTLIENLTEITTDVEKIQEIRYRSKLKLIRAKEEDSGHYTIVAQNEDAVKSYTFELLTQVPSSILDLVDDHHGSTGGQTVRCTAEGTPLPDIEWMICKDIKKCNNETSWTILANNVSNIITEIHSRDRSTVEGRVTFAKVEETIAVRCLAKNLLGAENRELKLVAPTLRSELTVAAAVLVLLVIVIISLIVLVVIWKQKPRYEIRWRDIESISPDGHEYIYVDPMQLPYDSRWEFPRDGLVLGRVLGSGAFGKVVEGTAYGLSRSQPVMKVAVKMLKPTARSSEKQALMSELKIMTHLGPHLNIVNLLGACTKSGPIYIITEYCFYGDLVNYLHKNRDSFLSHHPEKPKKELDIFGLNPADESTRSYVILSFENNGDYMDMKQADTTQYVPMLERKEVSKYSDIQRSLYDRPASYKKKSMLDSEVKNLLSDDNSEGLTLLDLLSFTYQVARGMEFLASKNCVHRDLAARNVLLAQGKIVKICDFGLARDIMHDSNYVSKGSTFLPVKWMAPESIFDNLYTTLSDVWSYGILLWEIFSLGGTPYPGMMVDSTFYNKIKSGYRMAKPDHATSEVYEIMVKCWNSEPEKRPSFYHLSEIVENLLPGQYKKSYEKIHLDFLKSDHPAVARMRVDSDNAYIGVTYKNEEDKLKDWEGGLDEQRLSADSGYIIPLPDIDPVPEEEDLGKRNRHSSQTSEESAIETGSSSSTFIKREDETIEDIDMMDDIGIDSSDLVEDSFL
Conditions: at 1 µM
Reported inhibition values follow for various molecules
Write the value in % as a bare number.

# example entries with known answers
• COC(=O)c1cncc(/C=C/c2c(C)cc(O)cc2C)c1 = 54.8
• O=C1Nc2ccccc2/C1=C/Nc1ccc2[nH]c(=O)[nH]c2c1 = 69.8
• Cc1ccc2c(c1)/C(=N/Nc1ccc(S(N)(=O)=O)cc1)C(=O)N2 = 52.3
• Nc1nccc(-c2c(-c3ccc(F)cc3)nn3cc(C(F)(F)F)ccc23)n1 = 1.99
• C[C@@H](Oc1cc(-n2cnc3ccc(OC[C@@H](O)CO)cc32)sc1C(N)=O)c1ccccc1Cl = 50.1
• NS(=O)(=O)c1ccc(Nc2cc(-c3cccc(O)c3)n[nH]2)cc1 = 49
• Oc1cccc(-c2nc(-c3ccccc3)[nH]c2-c2ccncc2)c1 = 9.69
• CCS(=O)(=O)c1ccc(OC)c(Nc2nccc(N(C)c3ccc4c(C)n[nH]c4c3)n2)c1 = 69.5
• CCn1c(-c2nonc2N)nc2c(C#CC(C)(C)O)nc(OCCNC)cc21 = 11.1

Please find the next molecule below.
Q: // query inhibition value for entry Cc1cc(-c2ccccn2)cc(C)c1/C=C/c1cncc(-c2nn[nH]n2)c1
Ans: 7.97

* * *

Molecular target: Serine/threonine-protein kinase 4 (Homo sapiens) (UniProt Q13043)
Sequence (Q13043 whole entry): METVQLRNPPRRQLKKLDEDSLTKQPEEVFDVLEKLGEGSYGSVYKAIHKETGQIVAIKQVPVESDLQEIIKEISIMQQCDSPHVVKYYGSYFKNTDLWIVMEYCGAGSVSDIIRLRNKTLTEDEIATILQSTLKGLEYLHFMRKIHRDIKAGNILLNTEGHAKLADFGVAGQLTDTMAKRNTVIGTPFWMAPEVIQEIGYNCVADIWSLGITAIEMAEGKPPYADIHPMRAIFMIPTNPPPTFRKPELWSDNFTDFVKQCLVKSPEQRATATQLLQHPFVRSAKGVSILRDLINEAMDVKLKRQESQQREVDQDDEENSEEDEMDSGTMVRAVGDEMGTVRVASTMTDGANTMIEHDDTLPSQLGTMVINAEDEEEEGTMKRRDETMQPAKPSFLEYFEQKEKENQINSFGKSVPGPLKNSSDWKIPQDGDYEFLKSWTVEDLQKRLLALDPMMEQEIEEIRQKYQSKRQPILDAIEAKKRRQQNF
Settings: at 1 µM
Measured endpoint: inhibition

# example entries with known answers
• CN1CCN(C(=O)c2ccc(NC(=O)Nc3ccc(N(C)c4ccnc(Nc5ccc(CS(C)(=O)=O)cc5)n4)cc3)cc2)CC1 = 60.9%
• Cc1ccc(O)cc1Nc1ccnc2ccc(S(C)(=O)=O)cc12 = 8.35%
• COc1cc2ncnc(Nc3ccc4c(cnn4Cc4ccccc4)c3)c2cc1OC = 7.03%
• COc1cc2ncnc(Nc3ccc(C)c(O)c3)c2cc1OC = 9.47%
• COc1cc(/C=N/Nc2ncnc3c2cnn3C(C)C)ccc1O = 7.78%
• NS(=O)(=O)c1ccc(-c2cc3ccncc3cc2OCc2ccccc2)cc1 = 7.76%

Q: Checklist item: inhibition tested on Serine/threonine-protein kinase 4 (Homo sapiens) (UniProt Q13043), entry NS(=O)(=O)c1ccc(Nc2cc(-c3cccc(O)c3)n[nH]2)cc1 , value?;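 also: mean inhibition of MST1, part of the GSK PKIS dataset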
Ans: 16.1%

Q: Can you check Cc1ccc2c(c1)/C(=N/Nc1ccc(S(N)(=O)=O)cc1)C(=O)N2 next?
Ans: 65.9%

Q: Can you check COc1ccc2ncnc(Nc3ccc(OCc4ccccc4)cc3)c2c1 next?
Ans: 4.04%

Q: Can you check OCc1ccc(-c2nc(-c3ccccn3)c(-c3ccc4c(c3)OCO4)[nH]2)cc1 next?
Ans: 6.27%

* * *

Target: Casein kinase I isoform gamma-1 (Homo sapiens) (UniProt Q9HCP0);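 also: reported as mean inhibition, part of GSK PKIS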
Sequence (Q9HCP0 whole entry, looked up, canonical isoform): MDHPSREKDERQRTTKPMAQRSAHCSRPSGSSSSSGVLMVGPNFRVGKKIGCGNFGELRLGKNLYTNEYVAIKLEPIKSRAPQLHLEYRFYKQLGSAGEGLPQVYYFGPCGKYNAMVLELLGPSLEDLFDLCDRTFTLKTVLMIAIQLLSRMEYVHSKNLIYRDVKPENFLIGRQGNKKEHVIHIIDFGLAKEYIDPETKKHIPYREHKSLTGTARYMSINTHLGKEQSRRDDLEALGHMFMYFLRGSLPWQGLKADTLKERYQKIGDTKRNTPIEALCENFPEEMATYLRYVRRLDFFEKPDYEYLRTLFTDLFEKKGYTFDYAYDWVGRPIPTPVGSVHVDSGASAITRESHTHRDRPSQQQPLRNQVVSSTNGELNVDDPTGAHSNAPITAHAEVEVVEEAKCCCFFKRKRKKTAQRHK
Details: at 0.1 µM
Reported inhibition values follow for various molecules
Write the value in % as a bare number.

# example entries with known answers
• NS(=O)(=O)c1ccc(-c2cc3ccncc3cc2OCc2ccccc2)cc1 = 2.57
• CCOc1nccc2c1nc(-c1nonc1N)n2CC = 2.65
• ON=C1CCc2cc(-c3nc(C4CCNCC4)[nH]c3-c3ccncc3)ccc21 = 0.25
• CN(c1ccc(NC(=O)Nc2ccc(OC(F)(F)F)cc2)cc1)c1ccnc(Nc2cccc(S(N)(=O)=O)c2)n1 = 2.75
• CCn1c(-c2nonc2N)nc2c(C#CC(C)(C)O)nc(OCCNC)cc21 = 3.33

Q: // query inhibition value for entry COc1cc2ncn(-c3cc(OCc4ccccc4S(C)(=O)=O)c(C#N)s3)c2cc1OC
Ans: 3.26

Q: Can you check NS(=O)(=O)c1ccc(Nc2cc(-c3cccc(O)c3)n[nH]2)cc1 next?
Ans: 5.15

Q: Can you check COc1cc2ncnc(Nc3ccc(C)c(O)c3)c2cc1OC next?
Ans: 4.01

Q: Can you check Oc1cccc(-c2nc(-c3ccccc3)[nH]c2-c2ccncc2)c1 next?
Ans: 2.26

Q: Can you check CN1CCN(C(=O)c2ccc(NC(=O)Nc3ccc(N(C)c4ccnc(Nc5ccc(CS(C)(=O)=O)cc5)n4)cc3)cc2)CC1 next?
Ans: 1.88

Q: Can you check O=C1Nc2ccc(-c3cccnc3)cc2C1=Cc1cc(Br)c(O)c(Br)c1 next?
Ans: 4.05

Q: Can you check COc1cccc(-n2ncc3c(N/N=C/c4ccc(S(C)(=O)=O)cc4)ncnc32)c1 next?
Ans: -2.52

Q: Can you check N#Cc1cccc(Nc2nccc(-c3cnn4ncccc34)n2)c1 next?
Ans: 5.75
